- TESTED SYSTEM: huCTLA4 (Homo sapiens, UniProt P16410)
- Sequence (P16410 36-223): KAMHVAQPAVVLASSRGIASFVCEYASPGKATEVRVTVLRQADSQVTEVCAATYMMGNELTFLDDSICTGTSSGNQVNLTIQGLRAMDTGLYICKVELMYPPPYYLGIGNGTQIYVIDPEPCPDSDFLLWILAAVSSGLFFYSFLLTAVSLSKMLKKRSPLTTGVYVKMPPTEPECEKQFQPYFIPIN
- METHOD NOTES: Flow binding to CHO cells stably expressing CTLA4
- Design: huCTLA4 and huPD-L1, full-length mammalian surface expression constructs were generated; expressed in transfected cells; host or cells: CHO cells, lentiviral transduction, sorted to >98% purity
- CONDITION CONTEXT: Table E16; consensus variants; CHO cells stably expressing CTLA4; 33.3 nM
Parameter: CTLA4 MFI at 33.3 nM. Scope: all listed entries.
Number only, please.

Below, 3 molecules whose answers are already recorded.
MOLECULE	CTLA4 MFI at 33.3 nM
H18Y/E35D/M47L/V68M/E95V/L97Q (protein, UniProt P33681 35-288, looked up, variant H18Y E35D M47L V68M E95V L97Q) T-lymphocyte activation …: VIHVTKEVKEVATLSCGYNVSVEELAQTRIYWQKDKKMVLTMMSGDLNIWPEYKNRTIFDITNNLSIMILALRPSDEGTYECVVLKYEKDAFKRVHQAEVTLSVKADFPTPSISDFEIPTSNIRRIICSTSGGFPEPHLSWLENGEELNAINTTVSQDPETELYAVSSKLDFNMTTNHSFMCLIKYGHLRVNQTFNWNTTKQEHFPDNLLPSWAITLISVNGIFVICCLTYCFAPRCRERRRNERLRRESVRPV	18022
H18Y/E35D/M47L/Y53F/V68M/A71G (protein, UniProt P33681 35-288, looked up, variant H18Y E35D M47L Y53F V68M A71G) T-lymphocyte activation …: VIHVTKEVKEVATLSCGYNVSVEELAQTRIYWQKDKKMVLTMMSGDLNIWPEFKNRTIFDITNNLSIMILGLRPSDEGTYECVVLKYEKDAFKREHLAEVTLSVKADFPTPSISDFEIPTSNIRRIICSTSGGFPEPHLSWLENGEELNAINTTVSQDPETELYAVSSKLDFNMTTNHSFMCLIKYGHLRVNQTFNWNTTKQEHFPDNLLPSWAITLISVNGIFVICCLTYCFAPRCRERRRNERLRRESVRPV	19528
H18Y/E35D/M47V/V68M/L85M (protein, UniProt P33681 35-288, looked up, variant H18Y E35D M47V V68M L85M) T-lymphocyte activation …: VIHVTKEVKEVATLSCGYNVSVEELAQTRIYWQKDKKMVLTMMSGDVNIWPEYKNRTIFDITNNLSIMILALRPSDEGTYECVVMKYEKDAFKREHLAEVTLSVKADFPTPSISDFEIPTSNIRRIICSTSGGFPEPHLSWLENGEELNAINTTVSQDPETELYAVSSKLDFNMTTNHSFMCLIKYGHLRVNQTFNWNTTKQEHFPDNLLPSWAITLISVNGIFVICCLTYCFAPRCRERRRNERLRRESVRPV	19306

Then this molecule:
Request: Any idea what CTLA4 MFI at 33.3 nM was measured for H18Y/E35D/V68M/A71G/R94Q/E95V (protein, UniProt P33681 35-288, looked up, variant H18Y E35D V68M A71G R94Q E95V, Fc fusion) T-lymphocyte activation …: VIHVTKEVKEVATLSCGYNVSVEELAQTRIYWQKDKKMVLTMMSGDMNIWPEYKNRTIFDITNNLSIMILGLRPSDEGTYECVVLKYEKDAFKQVHLAEVTLSVKADFPTPSISDFEIPTSNIRRIICSTSGGFPEPHLSWLENGEELNAINTTVSQDPETELYAVSSKLDFNMTTNHSFMCLIKYGHLRVNQTFNWNTTKQEHFPDNLLPSWAITLISVNGIFVICCLTYCFAPRCRERRRNERLRRESVRPV ?
Response: 19396
